Each entry below carries its reported rank of binding signal.
assayed.target: Polyclonal antibody ab6982 (Abcam)
assay.summary: cyclic peptide microarray, fiber peptides
experimental.readout: rank of binding signal (rank)

DTFNPVY (peptide) | 130
QLNLRLG (peptide) | 136
SSYTFSY (peptide) | 42
LGTGLSF (peptide) | 44

* * *

assayed.target: Polyclonal antibody ab6982 (Abcam)
assay.summary: cyclic peptide microarray, hexon peptides
The class of a record is decided solely by its measured rank of binding signal; consult bottom bin: < 50 rank; middle bin: ≥ 50 rank and < 100 rank; top bin: ≥ 100 rank

DDDNEDE (peptide) | middle bin
KDRMYSF (peptide) | top bin
DIETPDT (peptide) | middle bin
DEVDEQA (peptide) | bottom bin
DRMYSFF (peptide) | middle bin
LEINLEE (peptide) | bottom bin
GDRTRYF (peptide) | middle bin
NIGYQGF (peptide) | top bin
